Origin of the recorded values: patent US20240400708A1

# study-target: feline FcRn complex (FcRn-α subunit and β-microglobulin), biotin labeled (feline)
# procedure-details: SPR, pH 6
measure: log10 of Kd (log10 of the value in nM)
Kindly note that the scale is log10 and the underlying Kd is in nM.

feline IgG1a T437A (antibody, part only; not given: Variable domains, not shown: another chain or arm of the molecule) constant: ASTTAPSVFPLAPSCGTTSGATVALACLVLGYFPEPVTVSWNSGALTSGVHTFPAVLQASGLYSLSSMVTVPSSRWLSDTFTCNVAHPPSNTKVDKTVRKTDHPPGPKPCDCPKCPPPEMLGGPSIFIFPPKPKDTLSISRTPEVTCLVVDLGPDDSDVQITWFVDNTQVYTAKTSPREEQFNSTYRVVSVLPILHQDWLKGKEFKCKVNSKSLPSPIERTISKAKGQPHEPQVYVLPPAQEELSRNKVSVTCLIKSFHPPDIAVEWEITGQPEPENNYRTTPPQLDSDGTYFVYSKLSVDRSHWQRGNTYTCSVSHEALHSHHAQKSLTQSPGK    0.94
feline IgG1a S252K (antibody, part only; not given: variable domains and light chain, not shown: another chain or arm of the molecule) constant: ASTTAPSVFPLAPSCGTTSGATVALACLVLGYFPEPVTVSWNSGALTSGVHTFPAVLQASGLYSLSSMVTVPSSRWLSDTFTCNVAHPPSNTKVDKTVRKTDHPPGPKPCDCPKCPPPEMLGGPSIFIFPPKPKDTLKISRTPEVTCLVVDLGPDDSDVQITWFVDNTQVYTAKTSPREEQFNSTYRVVSVLPILHQDWLKGKEFKCKVNSKSLPSPIERTISKAKGQPHEPQVYVLPPAQEELSRNKVSVTCLIKSFHPPDIAVEWEITGQPEPENNYRTTPPQLDSDGTYFVYSKLSVDRSHWQRGNTYTCSVSHEALHSHHTQKSLTQSPGK    1.73

Query feline IgG1a S254P (antibody, part only; not given: Variable domains, not shown: another chain or arm of the molecule) constant: ASTTAPSVFPLAPSCGTTSGATVALACLVLGYFPEPVTVSWNSGALTSGVHTFPAVLQASGLYSLSSMVTVPSSRWLSDTFTCNVAHPPSNTKVDKTVRKTDHPPGPKPCDCPKCPPPEMLGGPSIFIFPPKPKDTLSIPRTPEVTCLVVDLGPDDSDVQITWFVDNTQVYTAKTSPREEQFNSTYRVVSVLPILHQDWLKGKEFKCKVNSKSLPSPIERTISKAKGQPHEPQVYVLPPAQEELSRNKVSVTCLIKSFHPPDIAVEWEITGQPEPENNYRTTPPQLDSDGTYFVYSKLSVDRSHWQRGNTYTCSVSHEALHSHHTQKSLTQSPGK yields log10 of Kd of 1.44

Query feline IgG1a S252H/S434F (antibody, part only; not given: Variable domains, not shown: another chain or arm of the molecule) constant: ASTTAPSVFPLAPSCGTTSGATVALACLVLGYFPEPVTVSWNSGALTSGVHTFPAVLQASGLYSLSSMVTVPSSRWLSDTFTCNVAHPPSNTKVDKTVRKTDHPPGPKPCDCPKCPPPEMLGGPSIFIFPPKPKDTLHISRTPEVTCLVVDLGPDDSDVQITWFVDNTQVYTAKTSPREEQFNSTYRVVSVLPILHQDWLKGKEFKCKVNSKSLPSPIERTISKAKGQPHEPQVYVLPPAQEELSRNKVSVTCLIKSFHPPDIAVEWEITGQPEPENNYRTTPPQLDSDGTYFVYSKLSVDRSHWQRGNTYTCSVSHEALHFHHTQKSLTQSPGK yields log10 of Kd of -0.41

Query feline IgG1a S252H/S428M/Q311Y (antibody, part only; not given: Variable domains, not shown: another chain or arm of the molecule) constant: ASTTAPSVFPLAPSCGTTSGATVALACLVLGYFPEPVTVSWNSGALTSGVHTFPAVLQASGLYSLSSMVTVPSSRWLSDTFTCNVAHPPSNTKVDKTVRKTDHPPGPKPCDCPKCPPPEMLGGPSIFIFPPKPKDTLHISRTPEVTCLVVDLGPDDSDVQITWFVDNTQVYTAKTSPREEQFNSTYRVVSVLPILHYDWLKGKEFKCKVNSKSLPSPIERTISKAKGQPHEPQVYVLPPAQEELSRNKVSVTCLIKSFHPPDIAVEWEITGQPEPENNYRTTPPQLDSDGTYFVYSKLSVDRSHWQRGNTYTCSVMHEALHSHHTQKSLTQSPGK yields log10 of Kd of 0.76

Query feline IgG1a S252F/S434Y (antibody, part only; not given: Variable domains, not shown: another chain or arm of the molecule) constant: ASTTAPSVFPLAPSCGTTSGATVALACLVLGYFPEPVTVSWNSGALTSGVHTFPAVLQASGLYSLSSMVTVPSSRWLSDTFTCNVAHPPSNTKVDKTVRKTDHPPGPKPCDCPKCPPPEMLGGPSIFIFPPKPKDTLFISRTPEVTCLVVDLGPDDSDVQITWFVDNTQVYTAKTSPREEQFNSTYRVVSVLPILHQDWLKGKEFKCKVNSKSLPSPIERTISKAKGQPHEPQVYVLPPAQEELSRNKVSVTCLIKSFHPPDIAVEWEITGQPEPENNYRTTPPQLDSDGTYFVYSKLSVDRSHWQRGNTYTCSVSHEALHYHHTQKSLTQSPGK yields log10 of Kd of 0.97

Query feline IgG1a Y404Q (antibody, part only; not given: Variable domains, not shown: another chain or arm of the molecule) constant: ASTTAPSVFPLAPSCGTTSGATVALACLVLGYFPEPVTVSWNSGALTSGVHTFPAVLQASGLYSLSSMVTVPSSRWLSDTFTCNVAHPPSNTKVDKTVRKTDHPPGPKPCDCPKCPPPEMLGGPSIFIFPPKPKDTLSISRTPEVTCLVVDLGPDDSDVQITWFVDNTQVYTAKTSPREEQFNSTYRVVSVLPILHQDWLKGKEFKCKVNSKSLPSPIERTISKAKGQPHEPQVYVLPPAQEELSRNKVSVTCLIKSFHPPDIAVEWEITGQPEPENNYRTTPPQLDSDGTQFVYSKLSVDRSHWQRGNTYTCSVSHEALHSHHTQKSLTQSPGK yields log10 of Kd of 1.00

Query feline IgG1a S428Y/Q311W/S434Y (antibody, part only; not given: Variable domains, not shown: another chain or arm of the molecule; small tags and cut ends) constant: ASTTAPSVFPLAPSCGTTSGATVALACLVLGYFPEPVTVSWNSGALTSGVHTFPAVLQASGLYSLSSMVTVPSSRWLSDTFTCNVAHPPSNTKVDKTVRKTDHPPGPKPCDCPKCPPPEMLGGPSIFIFPPKPKDTLSISRTPEVTCLVVDLGPDDSDVQITWFVDNTQVYTAKTSPREEQFNSTYRVVSVLPILHWDWLKGKEFKCKVNSKSLPSPIERTISKAKGQPHEPQVYVLPPAQEELSRNKVSVTCLIKSFHPPDIAVEWEITGQPEPENNYRTTPPQLDSDGTYFVYSKLSVDRSHWQRGNTYTCSVYHEALHYHHTQKSLTQSPGK yields log10 of Kd of 0.58
